molecular target: Aurora B (Homo sapiens, UniProt Q96GD4); construct: cell lysates from Jurkat cells (ATCC TIB-152) used; endogenous in cells; experiment: Kinobeads assay, Aurora B; settings: lysate of pervanadate-treated Jurkat cells, read-out: Inhibition values (IC50) Aur B
Sequence (Q96GD4 whole entry): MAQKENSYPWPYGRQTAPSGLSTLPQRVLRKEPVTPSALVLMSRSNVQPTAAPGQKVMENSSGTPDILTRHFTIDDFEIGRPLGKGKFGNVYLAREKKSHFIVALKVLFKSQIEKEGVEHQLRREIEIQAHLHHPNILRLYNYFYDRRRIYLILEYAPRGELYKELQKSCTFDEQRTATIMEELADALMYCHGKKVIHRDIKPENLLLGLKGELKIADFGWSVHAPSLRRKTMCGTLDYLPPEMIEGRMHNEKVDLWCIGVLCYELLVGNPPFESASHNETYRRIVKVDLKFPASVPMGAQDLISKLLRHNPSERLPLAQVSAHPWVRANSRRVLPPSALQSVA
Reported IC50 is given for each of the following molecules.

Take a look at these entries with their results.
N#CCCn1cc(Nc2ncc3cnn(Cc4cc(F)cc(N5CCOCC5=O)c4)c3n2)cn1 : 0.1 to 1 µM
OCCn1cc(Nc2ncc3cnn(Cc4cccc(N5CCNCC5)c4F)c3n2)cn1 : < 0.1 µM
Cn1cc(Nc2ncc3cnn(Cc4cc(F)cc(N5CCNCC5)c4F)c3n2)cn1 : 0.1 to 1 µM
O=C1CNCCN1c1cccc(Cn2ncc3cnc(Nc4cnn(CCO)c4)nc32)c1F : 0.1 to 1 µM
CN(C)CCCn1cc(Nc2ncc3cnn(Cc4cccc(N5CCOCC5=O)c4F)c3n2)cn1 : 0.1 to 1 µM

Query block: Which IC50 is reported with Aurora B (Homo sapiens, UniProt Q96GD4) for this entry: Cn1cc(Nc2ncc3cnn(Cc4cccc(N5CCN(S(C)(=O)=O)CC5)c4)c3n2)cn1 ?
Result block: 1 to 10 µM

Query block: // next record Cn1cc(Nc2ncc3cnn(Cc4cccc(N5CCOCC5)c4F)c3n2)cn1
Result block: 1 to 10 µM

Query block: // next record OCCn1cc(Nc2ncc3cnn(Cc4c(F)ccc(N5CCOCC5)c4F)c3n2)cn1
Result block: < 0.1 µM

Query block: // next record CN(C)CCCn1cc(Nc2ncc3cnn(Cc4c(F)c(F)cc(N5CCOCC5=O)c4F)c3n2)cn1
Result block: 0.1 to 1 µM

Query block: // next record Cn1cc(Nc2ncc3cnn(Cc4cccc(N5CCNCC5)c4)c3n2)cn1
Result block: 0.1 to 1 µM

Query block: // next record OCCn1cc(Nc2ncc3cnn(Cc4cccc(N5CCNCC5)c4)c3n2)cn1
Result block: 0.1 to 1 µM

Query block: // next record CN(C)CCCn1cc(Nc2ncc3cnn(Cc4cccc(N5CCOCC5)c4)c3n2)cn1
Result block: 0.1 to 1 µM

Query block: // next record Cn1cc(Nc2ncc3cnn(Cc4cccc(N5CC6(COC6)C5)c4F)c3n2)cn1
Result block: 1 to 10 µM

Values were extracted from patent US9040545B2.
